Details: rat, in vivo, iv
Metric name: t1/2 (time to half plasma elimination) (min)

Below, each entry is followed by its recorded t1/2 (time to half plasma elimination) result.
Problem: May I ask what t1/2 (time to half plasma elimination) has been recorded for `CN[C@H](Cc1ccccc1)C(=O)N1CCC[C@H]1C(=O)N[C@@H](CCCNC(=N)N)C(=O)c1nc2ccccc2s1` ?
Solution: 19

Problem: May I ask what t1/2 (time to half plasma elimination) has been recorded for `CN[C@H](Cc1ccc(F)cc1)C(=O)N1CCC[C@H]1C(=O)N[C@@H](CCCNC(=N)N)C(=O)c1nc2ccccc2s1` ?
Solution: 19

[1] CN[C@H](CC1CCCCC1)C(=O)N1CCC[C@H]1C(=O)N[C@@H](CCCNC(=N)N)C(=O)c1nc2ccccc2s1
[2] CN[C@@H](C(=O)N1CCC[C@H]1C(=O)N[C@@H](CCCNC(=N)N)C(=O)c1nc2ccccc2s1)C1CCCCC1
Problem: Given 1 and 2 , report the one with the higher recorded t1/2 (time to half plasma elimination). Please identify the chosen entry by its label.
Solution: 2
(2: 42 min, 1: 14 min)

====

Study target: UniProt P00760
Sequence (P00760 24-246): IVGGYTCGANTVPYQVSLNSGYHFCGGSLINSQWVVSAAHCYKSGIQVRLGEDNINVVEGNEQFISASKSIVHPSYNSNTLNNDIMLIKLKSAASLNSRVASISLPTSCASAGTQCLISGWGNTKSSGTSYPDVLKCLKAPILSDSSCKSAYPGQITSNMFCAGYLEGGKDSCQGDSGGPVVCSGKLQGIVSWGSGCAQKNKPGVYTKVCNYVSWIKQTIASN
Metric name: IC50 (nM)

[P] CN[C@H](Cc1ccccc1)C(=O)N1CCC[C@H]1C(=O)N[C@@H](CCCNC(=N)N)C(=O)c1nc2ccc3ccccc3c2s1
[Q] CN[C@H](Cc1ccc(F)cc1)C(=O)N1CCC[C@H]1C(=O)N[C@@H](CCCNC(=N)N)C(=O)c1nc2ccccc2s1
[R] N=C(N)NCCC[C@H](NC(=O)[C@@H]1CCCN1)C(=O)c1nc2ccccc2s1
Problem: Rank the items in ascending order with respect to IC50. Note for the reader: the ranking is given by listing the labels in the order requested.
Solution: Q, P, R
(Q: 2 nM, P: 5 nM, R: 684 nM)

====

Details: rat, in vivo, iv
Metric name: t1/2 (time to half plasma elimination) (min)

Below, each entry is followed by its recorded t1/2 (time to half plasma elimination) result.
Problem: May I ask what t1/2 (time to half plasma elimination) has been recorded for `CN[C@H](Cc1ccccc1)C(=O)N1CCC[C@H]1C(=O)N[C@@H](CCCNC(=N)N)C(=O)c1nc2ccc(C(=O)OC)cc2s1` ?
Solution: 43

Problem: May I ask what t1/2 (time to half plasma elimination) has been recorded for `CN[C@H](Cc1ccccc1)C(=O)N1CCC[C@H]1C(=O)N[C@@H](CCCNC(=N)N)C(=O)c1nc(C(=O)O)cs1` ?
Solution: 15

Problem: May I ask what t1/2 (time to half plasma elimination) has been recorded for `CN[C@H](Cc1ccccc1)C(=O)N1CCC[C@H]1C(=O)N[C@@H](CCCNC(=N)N)C(=O)c1nc2ccc(CO)cc2s1` ?
Solution: 16

[A] CNC(Cc1ccccc1)C(=O)N1CCCC1C(=O)NC(CCCNC(=N)N)C(=O)c1nc2ccccc2[nH]1 (stereo not shown)
[B] CN[C@H](Cc1ccccc1)C(=O)N1CCC[C@H]1C(=O)N[C@@H](CCCNC(=N)N)C(=O)c1nc2ccc(C(=O)O)cc2s1
Problem: Looking only at measured t1/2 (time to half plasma elimination), which entry is lower, A or B ? Please identify the chosen entry by its label.
Solution: A
